Just for reference, patent US20240218057A1 is where these values come from.

Target System: SARS-COV-2 RBD (SARS-COV-2, UniProt P0DTC2 319-539)
Assay Info: ELISA, RBD coated
Measured Parameter: EC50 (ng/mL)
Give the value, in units of ng/mL, as a plain number.

Consider the reported EC50 for these binders:
EC50 measured on C062 (antibody, V domains shown) VH: EVQLVESGGGLVKPGGSLRLTCAASGFTFSTYSMNWVRQAPGKGLEWVSSISSSSSYIYYADSVKGRFTISRDNAKNSLYLQMNSLRAEDTAVYYCARERGYYGGKTPPFLGGQGTLVTVSS VL: NFMLTQPHSVSESPGKTVTISCTGSSGSIASNYVQWYQQRPGSAPTTVIYEDNQRPSGVPDRFSGSIDSSSNSASLTISGLKTEDEADYYCQSYDSSNYWVFGGGTKLTVL = 4.69

EC50 measured on C057 (antibody, V domains shown) VH: QVQLVQSGAEVKRPGASVKLSCKASGYIFTDYSIHWVRQAPGQGLEWMGWVNPNSGGGNSAQKFMDWVTMARDTSITTVYMELSRLRSDDTAVYYCARGPLFHKLVYDSWSGYHDGFDIWGQGTMVTVSS VL: QSALTQPASVSGSPGQSITISCTGTSSDVGAYKFVSWYQQHPGKAPQLIIYEVSNRPSGVSNRFSGSKSGNTASLTISGLQAEDEADYYCSSYTNASTWVFGGGTELTVL = 2.31

Could you now consider this next binder?
EC50 measured on C542 (antibody, V domains shown) VH: EVQLVESGGGLVQPGGSLRLSCAASGLTVTSNYMSWVRQAPGRGLEWVSLIYPGGTTYYADSVKGRFTVSRDNSKNTLYLQMDSLRAEDTGVYYCARETLGRGGDCWGQGTLVTVSS VL: DIQMTQSPSSLSASVGDRVTITCQASQDISNFLNWYQQKPGKAPKLLIYDASNLETGVPSRFSGSRSGTDFTFTISSLQPDDIATYYCQQYDNLPRSFGQGTKLEIK = 1.07
